Biological target: T1, CD27 expressed on the cell surface (HT1080_CD27 cells) (human, UniProt P26842 20-260); note: test concentration or dose not given here
T1 sequence (looked up): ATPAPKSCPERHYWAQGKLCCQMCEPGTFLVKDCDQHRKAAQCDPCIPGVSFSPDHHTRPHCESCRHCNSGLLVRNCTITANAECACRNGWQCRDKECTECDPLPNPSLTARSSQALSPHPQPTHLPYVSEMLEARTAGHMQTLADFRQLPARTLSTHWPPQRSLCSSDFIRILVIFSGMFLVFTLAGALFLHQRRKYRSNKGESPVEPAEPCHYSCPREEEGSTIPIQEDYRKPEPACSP
Experiment: cell-based or functional assay
Assignment: determine reported IL-8 [abs. corr.] for the given binders.
Could you give me the number in abs. corr.? Just the number is fine.

Looking up P018.S.01.A.E05 (antibody, V domains shown, V regions on human Ig constant parts; also called AB27_17) VH: QEQLVESGGGLVQPEGSLTLTCTASGFSFSSRYYMCWVRQAPGKGLEWIACIAPDVSGSAYYATWAKGRITISETSSTTVTLRMTSLTAADTAIYFCARSVPGSLFYFQLWGPGTVVTVSS VL: AAVLTQTPPSVSAAVGGTVTIKCQSSQSVYNKNEFSWYQQKPGQPPKLLIYDASTLASGVPSRFKGSGSGTQFTLTISDLESDDAATYYCQGSYYSSGSYTAFGGGTEVVVK , I found its IL-8 [abs. corr.] recorded as 0.209

Looking up P018.S.02.A.A01 (antibody, V domains shown, V regions on human Ig constant parts; also called AB27_27) VH: QSVEESGGRLVTPGTPLTLTCTVSGIDLSRYAMGWVRQAPGKGLEYIGIISSSGSTYYASWIKGRFTISKTSTTVDLKITSPTTEDTATYFCARSPYASTSASAFNLWGPGTLVTVSS VL: AFELTQTPSSVEAAVGGTVTIKCQASQSISSWLSWYQQKPGQPPKLLIYEASKLASGVPSRFKGSGSGTQFTLTISDLESADAATYYCQSYSSTTTNTFGGGTEVVVK , I found its IL-8 [abs. corr.] recorded as 0.4

Cited source for all entries: patent US20210253725A1
